Reference source for all entries: patent US20230355720A1

- study-system: human GLP-1 receptor (human, UniProt P43220 24-463)
- assay-text: cell-based or functional assay
Bridge positions count the residues as written; N and C are the ends. Square brackets hold non-standard residues; d marks the D form. Ends that are not written are not given here. * marks the point of attachment. Acetyl(2-(4-imidazolyl)) = O=C(Cc1c[nH]cn1)*; Aib = CC(C)(N)C(=O)O
Returns the class for an entry based on its In vitro activity (%) compared with native peptide, vs GLP-1. Class ranges: lower segment (below 20%), middle segment (20% to below 40%), upper segment (40% or more)

Solved entries (count: 4):
binder	assigned-class
{Acetyl(2-(4-imidazolyl))}-[Aib]QGTFTSDYSKYLDEKRQKEFVNWLLAQKC (bridge 15-19; numbers in words are those of the source; also: ring between positions 16 and 20, type not given here) [triple agonist of SEQ ID NO: 93]	lower segment
H[Aib]QGTFTSDCSKYLDSRAAQDFVQWLLDGGPSSGAPPPS (not fully specified) [triple agonist of SEQ ID NO: 26]	upper segment
Y[Aib]QGTFTSDYSKYLDEKAAKDFVQWLLDHHPSSGQPPPSC (bridge 16-20; also: ring between positions 16 and 20, type not given here) [triple agonist of SEQ ID NO: 77]	middle segment
[Acetyl(2-(4-imidazolyl))][Aib]QGTFTSDYSIAMDEIHQKDFVNWLLAQC (bridge 16-20; not fully specified) [triple agonist of SEQ ID NO: 85]	lower segment

Lookup: Returns: class label. Input: H[Aib]QGTFTSDKSKYLDECAAQDFVQWLLDGGPSSGAPPPS (not fully specified) [triple agonist of SEQ ID NO: 41]
Found: middle segment

Lookup: Returns: class label. Input: [Acetyl(2-(4-imidazolyl))][Aib]QGTFTSDCSKYLDERAAQDFVQWLLDGGPSSGAPPPS (not fully specified) [triple agonist of SEQ ID NO: 63]
Found: lower segment

Lookup: Returns: class label. Input: Y[Aib]QGTFTSDYSKYLDECRAKDFVQWLLDHHPSSGQPPPS (bridge 16-20) [triple agonist of SEQ ID NO: 66]
Found: lower segment

Lookup: Returns: class label. Input: H[Aib]QGTFTSDYSKYLDECRQKEFVQWLLNGGPSSGAPPPSG (bridge 16-20) [triple agonist of SEQ ID NO: 37]
Found: upper segment

Lookup: Returns: class label. Input: H[Aib]QGTFTSDYSKYLDEKAAKEFVQWLLNTC (bridge 16-20; not fully specified) [triple agonist of SEQ ID NO: 29]
Found: middle segment
